Provenance of the data: patent US20100003217A1

ASSAY PROTOCOL: Metabolite profile in rat liver
Type: in vivo, male Sprague-Dawley rats
PARTICULARS: male, Sprague-Dawley, rat, liver, iv, 50 mg/kg, rat liver, IV dose, 2 h (Group 1A); read-out: liver metabolite concentration
MEASUREMENT TYPE: concentration at 2 h (ng/g)
Express the result in ng/g but write the number alone.

Per the record, C[C@@]1(O)[C@H](O)[C@@H](COP(=O)(O)OP(=O)(O)OP(=O)(O)O)O[C@H]1n1cnc2c(=O)[nH]c(N)nc21 [Compound 7] has concentration at 2 h of 600

###

Test system: rat primary hepatocytes
ASSAY PROTOCOL: Metabolic disposition of [^14C]-Compound 1 and [^14C]-2′-C-methyl guanosine in rat primary hepatocytes (incubation medium, cellular extracts, nucleotide levels)
Type: in vitro ADME, Sprague Dawley rat
PARTICULARS: rat hepatocytes Rs448; 10 μM [^14C]-2′-C-methyl guanosine; 4 h
MEASUREMENT TYPE: Major metabolites observed in cellular extracts (% of total radioactivity)

Check out these entries, answers already filled in.
Please fill in: Major metabolites observed in cellular extracts (% of total radioactivity) reported for C[C@@]1(O)[C@H](O)[C@@H](COP(=O)(O)OP(=O)(O)O)O[C@H]1n1cnc2c(=O)[nH]c(N)nc21 [Compound 6] = 3.54 % of total radioactivity

# molecule C[C@@]1(O)[C@H](O)[C@@H](COP(=O)(O)OP(=O)(O)OP(=O)(O)O)O[C@H]1n1cnc2c(=O)[nH]c(N)nc21 [Compound 7] ; its Major metabolites observed in cellular extracts (% of total radioactivity) = 17.9 % of total radioactivity

---
Record C[C@@]1(O)[C@H](O)[C@@H](CO)O[C@H]1n1cnc2c(=O)[nH]c(N)nc21 [2′-C-methyl guanosine, 9-(2-C-methyl-β-D-ribofuranosyl)guanine, reference compound] , field Major metabolites observed in cellular extracts (% of total radioactivity): 78.6 % of total radioactivity
